The measurements presented in this section are drawn from patent US12018084B2.

# TARGET DESC: T1, Human CXCR2 (Homo sapiens, UniProt P25025)
# T1 sequence (P25025 1-360): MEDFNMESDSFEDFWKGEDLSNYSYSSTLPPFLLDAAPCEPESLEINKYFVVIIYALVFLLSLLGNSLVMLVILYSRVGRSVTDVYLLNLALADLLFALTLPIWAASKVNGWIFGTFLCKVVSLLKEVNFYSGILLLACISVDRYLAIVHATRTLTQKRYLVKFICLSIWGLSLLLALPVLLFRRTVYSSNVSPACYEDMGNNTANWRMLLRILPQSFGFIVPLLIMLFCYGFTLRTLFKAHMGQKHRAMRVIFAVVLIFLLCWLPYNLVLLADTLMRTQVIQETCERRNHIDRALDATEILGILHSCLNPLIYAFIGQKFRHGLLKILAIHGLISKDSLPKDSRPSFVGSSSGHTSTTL
# PROCEDURE TEXT: cELISA of hybridoma supernatants on cells transfected with human CXCR2
# Format: binding
# Parameters: host or cells: Expi293F cells, vector pTT5
# ASSAY CONDITIONS: hybridoma supernatant; fluorescence units relative to positive control (100%)
# Description: To generate hybridomas which produced monoclonal antibodies to human CXCR2, splenocytes and/or lymph node cells from animals with the highest anti-CXCR2 titres were isolated and fused to mouse myeloma cells (ATCC, CRL-1580). Cells were plated at approximately 1×10^5 cells/mL in flat bottom microtiter plates, followed by a two week incubation in selective medium (10% FCS and 1×HAT (Sigma)). […] Bound antibodies were detected using a goat anti-rat IgG-HRP (Southern Biotech, #3030-05) secondary antibody. […]
ENDPOINT: Human CXCR2 % Positive (%)
Give the quantity in %, number only.

| MOLECULE | UNIT ABBREVIATION | Human CXCR2 % Positive |
| --- | --- | --- |
| BKO-7C11: VH SEQ ID NO: 31, VL SEQ ID NO: 32 (antibody, V domains shown, BKO_7C11_H6_B06_VH; BKO_7C11_G01_VL) VH: QVQLQQWGAGLLKPSETLSLTCAVYGGSFSGYYWSWIRQPPGKGLEWIGEINHSRNTNYNPSLKSRVTISVDTSKNQFSLKLSSVTAADTAVYYCARGEVRGVFTLYWYFDVWGRGTLVTVSS VL: SSELTQGPAVSVALGQTVRITCQGNSLRFYYASWYQQRPGQAPILVIYDKNNRPSGIPDRFSGSSSGNTASLTITGAQAEDEADYYCNSRDSSGYYMIFGGGTKLTVL | % | 73 |

Human CXCR2 % Positive reported for this molecule BKO-8B6: VH SEQ ID NO: 37, VL SEQ ID NO: 38 (antibody, V domains shown, BKO_8B6_VH; BKO_8B6_VL) VH: EVQLLESGGGLVQPGGSLRLSCAASGFTFSSNAMSWVRQAPGKGLEWVSAISNSGRSTYYADSVKGRFTISRDSSKNTLYLLMNSLRAEDSAVYYCAIKLGYWGQGSLVTVSS VL: QSALTQPPSASGSPGQSVTISCTGTSSDVGGYNYVSWYQQHPGKAPKLMMYEVSKRPSGVPDRFSGSKSGNTASLTVSGLQAEDEADYYCSSYAGSDNFGVFGGGTRLTVL : 95

Human CXCR2 % Positive reported for this molecule BKO-10G10: VH SEQ ID NO: 51, VL SEQ ID NO: 52 (antibody, V domains shown, BKO_10G10_VH; BKO_10G10_VL) VH: QLQLQESGPGLVKPSETLSLTCTVSGGSIRRSSYYWGWIRQPPGKGLEWIGSFYNSGNTYYKPSLKSRVAISVDTPKNQFSLKLSSVTAADTAVYYCARGYSSGGFDPWGQGTLVTVSS VL: QSALTQPASVSGSPGQSITISCTGTSSDVGGYNYVSWCQQHPGKAPKIMIFDVSNRPSGVSNRFSGSKSGNTASLTISGLQAEDEADYYCSSYTSSSTWVFGGGTRLTVL : 89

Human CXCR2 % Positive reported for this molecule BKO-9A8: VH SEQ ID NO: 47, VL SEQ ID NO: 48 (antibody, V domains shown, BKO_9A8_H3_F03_VH; BKO_9A8_L1_H02_VL) VH: EVQLLESGGGLVQTGGSLRLSCAASGFTFSSNTMSWVRQAPGKGLEWVSAISGSGGRTYYVDSVKGRFTISRDNSKNTLYLQMHSLRAEDTAVYYCAIQLGSWGQGILVTVSS VL: QSALTQPPSASGSPGQSVTISCTGTSSDVGAYNYVSWYQQHPGKAPKLMIYEVTKRPSGVPDRFSGSKSGNTASLTVSGLQAEDEADYYCSSYAGNNNFGVFGGGTKLTVL : 124
